The measurements presented in this section are drawn from ChEMBL document CHEMBL3507680.

- experiment-notes: Human HepG2 cell viability assay in 384 well format
- Type: toxicity, cell-based
- Design: dose 125 nL, time 70.5 hour; concentration not given beside the values
- run-conditions: HepG2 cells, read-out: Inhibition
measure: cytotoxicity at 70.5 h (%)

compound=Cc1ccc(S(=O)(=O)N(CC(N)=O)CC(C)C)cc1C unit_info=% numeric_value=-5.56
compound="CCN1CC2(CC1=O)CN(C(C)=O)CCN(C(=O)NC)C2 (centres undefined)" unit_info=% numeric_value=-3.8
compound=CCNC(=O)c1nc2c(s1)CCCN2S(C)(=O)=O unit_info=% numeric_value=28.7
compound=Cc1cnn(C2CN(CC(=O)NCCc3ccsc3)C2)c1 unit_info=% numeric_value=-13.7
compound=COCc1nc2cc(NCc3ncc[nH]3)ccc2o1 unit_info=% numeric_value=-3.38
compound="Cc1nc(CN2CCCC(N(C)CC3CCCC3)C2)no1 (centres undefined)" unit_info=% numeric_value=0.0887
compound="CN(C(=O)CN1CCCC1c1cnn(C)c1)C1(C#N)CCCCC1 (centres undefined)" unit_info=% numeric_value=-4.65
compound=COc1ccnc(N2CCN(C(=O)CN3CCCC3=O)CC2)n1 unit_info=% numeric_value=0.556
compound=Cc1nn(Cn2ccc(C(=O)N3CCC(C)CC3)n2)c(C)c1Cl unit_info=% numeric_value=-13.2
compound=Cc1ccc(C)c2c(=O)cc(CN3CC[C@@H](N)[C@H](O)C3)[nH]c12 unit_info=% numeric_value=-3.81
compound=CC(C)(C)NC(=O)CN1CCNCC1 unit_info=% numeric_value=6.83
compound=Cc1ccnc(NC(=O)c2c(C)oc(C)c2C)c1 unit_info=% numeric_value=9.9
compound=O=C([C@H]1COC[C@H]2CN(CC3CCC3)C[C@H]21)N1CCOCC1 unit_info=% numeric_value=-6.01
compound="Cc1ccc(C(=O)N2CCC3(CC2)CC(c2cnn(C)c2)CO3)cn1 (centres undefined)" unit_info=% numeric_value=-10.6

----------
- experiment-notes: Human HepG2 cell viability assay in 384 well format
- Assay type: toxicity, cell-based
- Set-up: dose 125 nL, time 70.5 hour; concentration not given beside the values
- run-conditions: HepG2 cells, read-out: Inhibition
Listed below: cytotoxicity at 70.5 h values for each entry.
measure: cytotoxicity at 70.5 h (%)

molecule="CCn1cc(CN2CCCC(c3[nH]ncc3-c3ccc(F)cc3)C2)cn1 (stereo not drawn)" measure="cytotoxicity at 70.5 h" numeric_value=-19.8
molecule=COc1ccc(CNc2nc(N3CCOCC3)ns2)cc1 measure="cytotoxicity at 70.5 h" numeric_value=-10.7
molecule=COCC(=O)NC[C@@]1(COc2cccnc2)C[C@@H](O)[C@@H](O)C1 measure="cytotoxicity at 70.5 h" numeric_value=3.07
molecule="COC1COC2(CCN(Cc3ccc4c(c3)OCO4)CC2)C1 (stereo not drawn)" measure="cytotoxicity at 70.5 h" numeric_value=0.98
molecule=CN(CC(=O)NCC(=O)Nc1ccc(F)cc1)Cc1cccs1 measure="cytotoxicity at 70.5 h" numeric_value=-20.9
molecule="COc1ccccc1C(O)Cn1cc(C(=O)NCC2CC2)nn1 (stereo not drawn)" measure="cytotoxicity at 70.5 h" numeric_value=-2.27
molecule=CC(C)c1nn(C)c(Cl)c1CNCc1ccc(N(C)C)nc1 measure="cytotoxicity at 70.5 h" numeric_value=-2.07
molecule="Cc1nc(C)n(CC2CCCN(c3ncnc4c3CCC4)C2)n1 (stereo not drawn)" measure="cytotoxicity at 70.5 h" numeric_value=26.1
molecule="CC(NC(=O)c1cccc(CN2CCN(C)CC2)c1)c1ccccn1 (stereo not drawn)" measure="cytotoxicity at 70.5 h" numeric_value=0.178
molecule="CCOc1ccc(Cl)cc1C(C(=O)O)N1CCOCC1 (stereo not drawn)" measure="cytotoxicity at 70.5 h" numeric_value=-4.12
molecule=Cc1occc1C(=O)N1C[C@@H]2OCCN(c3ncccn3)[C@@H]2C1 measure="cytotoxicity at 70.5 h" numeric_value=-11.6
molecule=COCc1ncc(CN2CCC(Oc3ccccc3C)CC2)cn1 measure="cytotoxicity at 70.5 h" numeric_value=-16.4
molecule=CC(=O)c1cc2ncc(C(=O)NC3CCCC3)cc2[nH]1 measure="cytotoxicity at 70.5 h" numeric_value=-3.81
